molecular target: SpBbc1; assay: SPOT peptide array binding signal intensity (averaged, normalized) (arbitrary units (background-subtracted, floor 0; scale differs between SH3 domains)); higher = stronger binding of the SH3 domain to the peptide
# Lookup of reported SPOT peptide array binding signal intensity keyed by entry
PROPERTY_NAME: SPOT peptide array binding signal intensity

- HVRRSILALPLGVLL: 2
- YVRRRPRVRLEPLLS: 23.2
- WTQRRGPLVVYAEDN: 2.75
- RTIRKLPLMSLSEYF: 1
- RRSKSLPTTPGIRSG: 6.5
- LRIKRKPVQTFFEFI: 5
- YRRKSIPFAPHQITA: 2
- KDKKTKPTPPPKPSH: 3.75
- NLKKRPPTAPQRKIS: 11
- LPPPPPPPPPPPLPQ: 0.5
- NNQRRKPLLLNIGDH: 0.5
- KIRRSSLMIPNPQQF: 3.5
- DAPASKPSVPPRNYF: 182
- KKAPPPVVKPKPRNF: 0.75
- RSLRKRPTSPSISGS: 8
- AERNYAPRLPRRETS: 7.25
- KKIRLIFTYPSTVGR: 41
- RRASLFPRDPKRLRP: 7
- SRSKPLPLTPNSKYN: 6.5
- QTMRQAPKRPDADVA: 42.5
- GAGERPRLVPRPINV: 22.8
- HPRFVSPRIPSRIVK: 19
- TSFKGRPKPPKTLKH: 0.5
